Values from patent US20080227763A1

TEST_DESCRIPTION: Solubility of nomegestrol acetate in solvent mixtures
Format: physicochemical
SETTINGS: ethanol/water/propyleneglycol ternary mixture, aqueous with cosolvent or surfactant or cyclodextrin, System I (Ethanol 95° 30%/Demineralized water 70%), 0% propyleneglycol; read-out: Solubilities
MEASUREMENT_KIND: solubility (µg/mL)
Quick reminder: number only, in µg/mL, skip the unit.

Query string: Suppose we examine the molecule CC(=O)O[C@]1(C(C)=O)CC[C@H]2[C@@H]3C=C(C)C4=CC(=O)CC[C@@H]4[C@H]3CC[C@@]21C [nomegestrol acetate] ; what solubility value has been reported?
Result string: 600

###

TEST_DESCRIPTION: Solubility of nomegestrol acetate in solvent mixtures
Type: physicochemical
SETTINGS: ethanol/water/propyleneglycol ternary mixture, aqueous with cosolvent or surfactant or cyclodextrin, System III (Ethanol 95° 45%/Demineralized water 55%), 4% propyleneglycol; read-out: Solubilities
MEASUREMENT_KIND: solubility (µg/mL)
Quick reminder: number only, in µg/mL, skip the unit.

Query string: Suppose we examine the compound CC(=O)O[C@]1(C(C)=O)CC[C@H]2[C@@H]3C=C(C)C4=CC(=O)CC[C@@H]4[C@H]3CC[C@@]21C [nomegestrol acetate] ; what solubility value has been reported?
Result string: 5100
